As shown below, each of these molecules has a reported ratio Tumor:fat value.
- Tested on: EMT-6 mammary tumors
- PROTOCOL DESCRIPTION: Biodistribution in EMT-6 BALB/C mice
- Type: in vivo
- EXPERIMENTAL PARAMETERS: 1 hour
Could you keep your reply to the number by itself?

Illustrative cases are given below, each with its answer.
In [3]: df
Out[3]:
                                   molecule  quantitative_result
0  COc1cc2c(cc1OC)CN(CCCCNC(=O)c1cc(Br)cc(OC)c1O[11CH3])CC2 [[^11C]6]                 2.77
1  COc1cc2c(cc1OC)CN(CCCCNC(=O)c1cc([76Br])cc(OC)c1OC)CC2 [[^76Br]6]                 5.09
2  COc1cc2c(cc1OC)CN(CCNC(=O)c1cc([125I])ccc1OC)CC2 [[^125I]8i]                 1.93
3  COc1cc2c(cc1OC)CN(CCCCNC(=O)c1cc([125I])cc(OC)c1OC)CC2 [[^125I]6i]                 4.85

With those in mind, consider the next molecule.
What value of ratio Tumor:fat has been recorded for this entry: COc1cc2c(cc1OC)CN(CCCCNC(=O)c1cc(C)cc(OC)c1O[11CH3])CC2 [[^11C]10] 5.36

====

- Tested on: EMT-6 mammary tumors
- PROTOCOL DESCRIPTION: Biodistribution in EMT-6 BALB/C mice
- Assay type: in vivo
- EXPERIMENTAL PARAMETERS: tumor, 1 hour
ATTRIBUTE MEASURED: % ID per gram tumor (% ID per gram)
Answer with a number only, understood to be in % ID per gram.

In [3]: df
Out[3]:
                                   compound  unit_of_measurement  quantitative_result
0  COc1cc2c(cc1OC)CN(CCCCNC(=O)c1cc(C)cc(OC)c1O[11CH3])CC2 [[^11C]10]        % ID per gram                 1.32
1  COc1cc2c(cc1OC)CN(CCCCNC(=O)c1cc([125I])cc(OC)c1OC)CC2 [[^125I]6i]        % ID per gram                 3.53
2  COc1cc2c(cc1OC)CN(CCCCNC(=O)c1cc(Br)cc(OC)c1O[11CH3])CC2 [[^11C]6]        % ID per gram                 0.50
3  COc1cc2c(cc1OC)CN(CCNC(=O)c1cc([125I])ccc1OC)CC2 [[^125I]8i]        % ID per gram                 0.71
4  COc1cc2c(cc1OC)CN(CCCCNC(=O)c1cc([76Br])cc(OC)c1OC)CC2 [[^76Br]6]        % ID per gram                 3.98

With those in mind, consider the next compound.
What value of % ID per gram tumor has been recorded for this entry: COc1cc2c(cc1OC)CN(CCNC(=O)c1cc(C)ccc1O[11CH3])CC2 [[^11C]9] 0.85

====

- Test system: EMT-6 mammary tumors
- PROTOCOL DESCRIPTION: Biodistribution in EMT-6 BALB/C mice
- Format: in vivo
- EXPERIMENTAL PARAMETERS: blood, 5 min
As shown below, each of these compounds has a reported % ID per gram blood value.
Quote the value and follow it with the unit of measurement.

In [3]: df
Out[3]:
                                   compound          assay_system                     result
0  COc1cc2c(cc1OC)CN(CCCCNC(=O)c1cc([76Br])cc(OC)c1OC)CC2 [[^76Br]6]  EMT-6 mammary tumors  2.12 ± 0.20 % ID per gram
1  COc1cc2c(cc1OC)CN(CCCCNC(=O)c1cc(Br)cc(OC)c1O[11CH3])CC2 [[^11C]6]  EMT-6 mammary tumors  7.12 ± 1.01 % ID per gram
2  COc1cc2c(cc1OC)CN(CCCCNC(=O)c1cc(C)cc(OC)c1O[11CH3])CC2 [[^11C]10]  EMT-6 mammary tumors  3.09 ± 0.33 % ID per gram
3  COc1cc2c(cc1OC)CN(CCNC(=O)c1cc([125I])ccc1OC)CC2 [[^125I]8i]  EMT-6 mammary tumors  6.90 ± 1.29 % ID per gram
4  COc1cc2c(cc1OC)CN(CCCCNC(=O)c1cc([125I])cc(OC)c1OC)CC2 [[^125I]6i]  EMT-6 mammary tumors  2.37 ± 0.26 % ID per gram

With those in mind, consider the next compound.
What value of % ID per gram blood has been recorded for this entry: COc1cc2c(cc1OC)CN(CCNC(=O)c1cc(C)ccc1O[11CH3])CC2 [[^11C]9] 5.89 ± 0.29 % ID per gram

====

- Tested on: EMT-6 mammary tumors
- PROTOCOL DESCRIPTION: Biodistribution in EMT-6 BALB/C mice
- Assay type: in vivo
- EXPERIMENTAL PARAMETERS: liver, 1 hour
Lab note: anything with % ID per gram liver below 3 % ID per gram is marked TRUE; values at 3 % ID per gram or higher are marked FALSE.

>>> df
                                   compound          assay_system  assigned_label
0  COc1cc2c(cc1OC)CN(CCNC(=O)c1cc([125I])ccc1OC)CC2 [[^125I]8i]  EMT-6 mammary tumors            TRUE
1  COc1cc2c(cc1OC)CN(CCNC(=O)c1cc(C)ccc1O[11CH3])CC2 [[^11C]9]  EMT-6 mammary tumors            TRUE
2  COc1cc2c(cc1OC)CN(CCCCNC(=O)c1cc(Br)cc(OC)c1O[11CH3])CC2 [[^11C]6]  EMT-6 mammary tumors            TRUE
3  COc1cc2c(cc1OC)CN(CCCCNC(=O)c1cc([76Br])cc(OC)c1OC)CC2 [[^76Br]6]  EMT-6 mammary tumors           FALSE

Turning now to a further compound:
Confirm or reject: % ID per gram liver of COc1cc2c(cc1OC)CN(CCCCNC(=O)c1cc([125I])cc(OC)c1OC)CC2 [[^125I]6i] lies strictly below 3 % ID per gram FALSE

====

As shown below, each of these compounds has a reported % ID per gram blood value.
- Test system: EMT-6 mammary tumors
- PROTOCOL DESCRIPTION: Biodistribution in EMT-6 BALB/C mice
- Format: in vivo
- EXPERIMENTAL PARAMETERS: blood, 1 hour
- From the text: As used herein, the term “tumor:background ratio” (i.e., tumor:fat ratio, tumor:muscle ratio, tumor:lung ratio, tumor:blood ratio) refers to the % injected dose/g tissue of the radiotracer in the tumor divided by the % injected dose/g […] in the background tissue (i.e., fat, muscle, lung, blood). B. Biodistribution Studies of ^11C analogs in Tumor-Bearing Mice. […]
Answer with a number only, understood to be in % ID per gram.

>>> print(df.to_string())
                                   compound  quantitative_result
0  COc1cc2c(cc1OC)CN(CCCCNC(=O)c1cc(C)cc(OC)c1O[11CH3])CC2 [[^11C]10]                 0.73
1  COc1cc2c(cc1OC)CN(CCCCNC(=O)c1cc([125I])cc(OC)c1OC)CC2 [[^125I]6i]                 1.52
2  COc1cc2c(cc1OC)CN(CCNC(=O)c1cc([125I])ccc1OC)CC2 [[^125I]8i]                 1.17

What value of % ID per gram blood has been recorded for this entry: COc1cc2c(cc1OC)CN(CCNC(=O)c1cc(C)ccc1O[11CH3])CC2 [[^11C]9] 1.98

Quick one: COc1cc2c(cc1OC)CN(CCCCNC(=O)c1cc(Br)cc(OC)c1O[11CH3])CC2 [[^11C]6] 0.45

Quick one: COc1cc2c(cc1OC)CN(CCCCNC(=O)c1cc([76Br])cc(OC)c1OC)CC2 [[^76Br]6] 1.60

====

- Tested on: EMT-6 mammary tumors
- PROTOCOL DESCRIPTION: Biodistribution in EMT-6 BALB/C mice
- Type: in vivo
- EXPERIMENTAL PARAMETERS: blood, 30 min
As shown below, each of these compounds has a reported % ID per gram blood value.
Answer with a number only, understood to be in % ID per gram.

Illustrative cases are given below, each with its answer.
                                   compound          assay_system  quantitative_result
0  COc1cc2c(cc1OC)CN(CCCCNC(=O)c1cc(C)cc(OC)c1O[11CH3])CC2 [[^11C]10]  EMT-6 mammary tumors                 1.31
1  COc1cc2c(cc1OC)CN(CCCCNC(=O)c1cc(Br)cc(OC)c1O[11CH3])CC2 [[^11C]6]  EMT-6 mammary tumors                 0.99
2  COc1cc2c(cc1OC)CN(CCNC(=O)c1cc(C)ccc1O[11CH3])CC2 [[^11C]9]  EMT-6 mammary tumors                 2.62
3  COc1cc2c(cc1OC)CN(CCCCNC(=O)c1cc([76Br])cc(OC)c1OC)CC2 [[^76Br]6]  EMT-6 mammary tumors                 2.20
4  COc1cc2c(cc1OC)CN(CCCCNC(=O)c1cc([125I])cc(OC)c1OC)CC2 [[^125I]6i]  EMT-6 mammary tumors                 2.19

What value of % ID per gram blood has been recorded for this entry: COc1cc2c(cc1OC)CN(CCNC(=O)c1cc([125I])ccc1OC)CC2 [[^125I]8i] 2.44
